- System: Hepatitis B virus
- Assay Explanation: Antiviral activity against Hepatitis B virus infected in human HepG2.2.15 cells assessed as decrease in HBV surface antigen secretion after 21 days
- Type: functional, organism-based
- Setup Conditions: HepG2 2.2.15, 504 h
Measure: pIC50
Answers are plain numbers, as −log10 of the molar value.

Req: Return pIC50 measured with Hepatitis B virus given this molecule: C[C@H]1[C@H](OC(=O)CCC(=O)O)O[C@@H]2O[C@@]3(C)CC[C@H]4[C@H](C)CC[C@@H]1[C@@]24OO3 [ARTESUNATE]
Resp: 5.64

***
Req: // map C[C@@H]1CC[C@H]2[C@@H](C)C(=O)O[C@@H]3O[C@@]4(C)CC[C@@H]1[C@]32OO4 to recorded pIC50 (system: Hepatitis B virus)
Resp: 4.26

----------
For each of the molecules below, state its selectivity ratio.
- Assay Explanation: Selectivity index, ratio of cytotoxicity towards human HepG2.2.15 cells to IC50 for HBV DNA production
- Assay type: toxicity, cell-based
- Setup Conditions: read-out: Selectivity Index
Give bare numbers.

Req: What does the data say about its selectivity ratio? Entry: CCOC(=O)c1cc2cc(OC)c(O)c(Cn3ccnc3)c2nc1C[S+]([O-])c1ccc(F)cc1 (stereo unspecified)
Resp: 37.9

Please look at the items below and tell me selectivity ratio for each one, in order.
1. CCOC(=O)c1cc2cc(OC)c(O)c(Cn3ccnc3)c2nc1C[S+]([O-])c1ccc(F)c(F)c1 (stereo unspecified)
2. COc1cc2cc3c(nc2c(Cn2ccnc2C)c1O)-c1ccc(F)cc1SC3
3. C[C@@H]1CC[C@]2(C(=O)O[C@@H]3O[C@H](CO)[C@@H](O)[C@H](O)[C@H]3O)CC[C@]3(C)C(=CC[C@@H]4[C@@]5(C)C[C@@H](O)[C@H](O)C(C)(C)[C@@H]5CC[C@]43C)[C@@H]2[C@]1(C)O
4. Nc1ccn([C@@H]2CS[C@H](CO)O2)c(=O)n1 [LAMIVUDINE]

Resp:
1: 61.7; 2: 60.3; 3: 12.1; 4: 7

----------
- Tested on: Hepatitis B virus
- Assay Explanation: Antiviral activity against Hepatitis B virus infected in human HepG2.2.15 cells assessed as decrease in HBV DNA production
- Format: functional, organism-based
- Setup Conditions: HepG2 2.2.15
Hi there, I'd appreciate the recorded IC50 for every entry that follows.

Solved cases below.
Req: What value of measured IC50 is listed for COc1cc2cc3c(nc2c(Cn2ccnc2C)c1O)-c1ccc(F)cc1SC3 ?
Resp: 1.7 µM

Req: // lookup IC50 for CCOC(=O)c1cc2cc(OC)c(O)c(Cn3ccnc3)c2nc1C[S+]([O-])c1ccc(F)c(F)c1 (stereo unspecified)
Resp: 2.6 µM

Req: Need IC50, item COc1cc2cc3c(nc2c(CN2CCCC2)c1O)-c1ccc(C)cc1SC3
Resp: < 10 µM

Req: Consider the molecule C[C@@H]1CC[C@]2(C(=O)O[C@@H]3O[C@H](CO)[C@@H](O)[C@H](O)[C@H]3O)CC[C@]3(C)C(=CC[C@@H]4[C@@]5(C)C[C@@H](O)[C@H](O)C(C)(C)[C@@H]5CC[C@]43C)[C@@H]2[C@]1(C)O and give its measured IC50.
Resp: 19.4 µg/mL

Req: Please give the measured IC50 for this molecule: CCOC(=O)c1cc2cc(OC)c(O)c(Cn3ccnc3)c2nc1C[S+]([O-])c1ccc(F)cc1 (stereo unspecified)
Resp: 3.5 µM

Req: // IC50 lookup, key: Nc1ccn([C@@H]2CS[C@H](CO)O2)c(=O)n1 [LAMIVUDINE]
Resp: 343 µM

Please go through the list and note IC50 for each molecule.
1. COc1cc2cc3c(nc2c(CN2CCCCC2)c1O)-c1ccc(F)cc1SC3
2. COc1ccc2c(c1)-c1nc3c(CN4CCCCC4)c(O)c(OC)cc3cc1CS2
3. COc1cc2nc3c(cc2c(CN2CCCCC2)c1O)CSc1c(C)cc(C)cc1-3
4. CCN(CC)Cc1c(O)c(OC)cc2nc3c(cc12)CSc1ccc(C)cc1-3
5. CCN(CC)Cc1c(O)c(OC)cc2nc3c(cc12)CSc1cc(F)ccc1-3

Resp:
< 10 µM
< 10 µM
< 10 µM
< 10 µM
< 10 µM

Hello, the source for this data is ChEMBL document CHEMBL3120134, in case you need it.
